// provenance: patent US20250236608A1

// reported IC50 for each item listed
Measured Target: pEGFR (Tyr1068) in PC-9 cells (Ex19Del) (Homo sapiens (Human), UniProt P00533, DEL746-750)
Sequence (P00533 other isoform, or with tags, fused parts or gaps del 746-750): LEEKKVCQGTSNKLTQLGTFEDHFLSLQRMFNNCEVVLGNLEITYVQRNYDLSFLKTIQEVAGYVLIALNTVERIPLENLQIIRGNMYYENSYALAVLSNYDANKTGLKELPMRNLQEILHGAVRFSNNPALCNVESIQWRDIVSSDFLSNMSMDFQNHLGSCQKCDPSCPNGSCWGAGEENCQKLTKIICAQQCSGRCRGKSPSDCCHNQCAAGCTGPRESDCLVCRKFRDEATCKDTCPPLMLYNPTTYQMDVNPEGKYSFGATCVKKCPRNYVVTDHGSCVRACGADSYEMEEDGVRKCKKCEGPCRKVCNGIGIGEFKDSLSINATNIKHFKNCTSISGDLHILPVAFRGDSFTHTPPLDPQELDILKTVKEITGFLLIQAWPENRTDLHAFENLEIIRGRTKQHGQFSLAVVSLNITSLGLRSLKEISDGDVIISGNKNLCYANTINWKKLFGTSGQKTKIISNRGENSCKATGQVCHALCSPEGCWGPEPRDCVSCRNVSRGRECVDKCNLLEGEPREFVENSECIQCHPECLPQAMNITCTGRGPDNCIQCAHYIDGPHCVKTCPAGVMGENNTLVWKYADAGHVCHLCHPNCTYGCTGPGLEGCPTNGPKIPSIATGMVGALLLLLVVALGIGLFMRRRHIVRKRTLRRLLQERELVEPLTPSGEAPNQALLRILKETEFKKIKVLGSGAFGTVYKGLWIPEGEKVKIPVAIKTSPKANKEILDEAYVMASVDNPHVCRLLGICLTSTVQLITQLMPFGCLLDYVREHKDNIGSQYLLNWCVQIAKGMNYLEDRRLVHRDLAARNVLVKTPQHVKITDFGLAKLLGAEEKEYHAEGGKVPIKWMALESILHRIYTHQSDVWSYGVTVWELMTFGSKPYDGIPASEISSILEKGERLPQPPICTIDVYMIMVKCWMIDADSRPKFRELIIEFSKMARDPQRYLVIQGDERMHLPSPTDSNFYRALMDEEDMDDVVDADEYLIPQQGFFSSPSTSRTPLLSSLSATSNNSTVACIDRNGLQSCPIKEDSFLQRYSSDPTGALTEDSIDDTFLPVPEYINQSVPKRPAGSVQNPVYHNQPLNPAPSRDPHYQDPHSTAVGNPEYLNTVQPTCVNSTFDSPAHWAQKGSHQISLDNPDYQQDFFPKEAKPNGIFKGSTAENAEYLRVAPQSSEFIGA
Experiment Description: PC-9 pEGFR AlphaLISA assay
Experimental Conditions: 4 hours incubation, p-EGFR (Tyr1068) AlphaLISA, read-out: Ext pEGFR_PC-9 Ex19Del IC50
Reply with just the number (in nM).

In the examples that follow, each entry is paired with its recorded IC50.
Compound | Unit Spec | Measured Value
CCn1cc(-c2ncnc3cc(OC)c(NC(=O)C45CC(N(C)C)(C4)C5)nc23)c(-c2ccc(F)cc2)n1 | nM | 1.7
COc1cc2ncnc(-c3cn(C)nc3-c3ccccc3F)c2nc1NC(=O)[C@@]12C[C@@H]1CN(C)C2 | nM | 2.3
CCOc1cc2ncnc(-c3cn(C4CC4)nc3-c3ccccc3)c2cc1[C@H](C)O (single isomer, unassigned) | nM | 3.8
CC(C)Oc1cc2ncnc(-c3cn(C)nc3-c3ccccc3)c2cc1OC(=O)N1CCOC[C@H]1C | nM | 6.8
COc1cc2ncnc(-c3cn(C)nc3-c3ccccc3)c2cc1[C@@H]1CN(C)CCO1 | nM | 16.1
COc1cc2ncnc(-c3cn(C)nc3-c3ccccc3)c2cc1NC(=O)c1cccc(F)c1C | nM | 8.4

Pending compound:
Determine its reported IC50: COc1cc2ncnc(-c3cn(C)nc3-c3ccccc3)c2cc1-c1ccc(OC)c2n[nH]cc12
8.7
